- Target Desc: Protein translocase subunit SecA (Escherichia coli (strain K12))
- Test Description: Assay to Identify E. coli SecA ATPase Inhibitors
- Assay type: functional
- Set-up: scale not given: direction of the effect not stated beside the values
- Setup Conditions: 30 µM
Results with a measured potency or affinity are listed apart.
Value Kind: Percent Effect

Prompt: // returns reported Percent Effect for input Cn1ncc2c1C(COCC1CC1)CN(Cc1nccs1)C2 (stereo not given)
Response: -1.87%

Prompt: // returns reported Percent Effect for input "Cc1cc(C)n(CC(=O)N2CCC(c3nc(C)no3)CC2)n1"
Response: -2.79%

Prompt: // returns reported Percent Effect for input COCC1CN(C(=O)c2ccoc2C)Cc2nccn2C1 (stereo not given)
Response: -6.75%

Prompt: // returns reported Percent Effect for input "O=C(c1ccco1)N1C[C@H]2CCCN(Cc3cccs3)[C@H]2C1"
Response: -3.68%

Prompt: // returns reported Percent Effect for input O=C(C1SCCc2sccc21)N1CCC(O)CC1 (stereo not given)
Response: -4.42%

Prompt: // returns reported Percent Effect for input CCn1nnc2c1C(COC)CN(Cc1ccsc1)C2 (stereo not given)
Response: -6.4%

Prompt: // returns reported Percent Effect for input "Cn1cc(CN2CC[C@@H]3[C@@H](CCC(=O)N3CCC3=CCCCC3)C2)cn1"
Response: -5.13%

Prompt: // returns reported Percent Effect for input CC(C)c1nc(C2CCCN(C(=O)c3ccc4nccn4c3)C2)no1 (stereo not given)
Response: -2.08%

Prompt: // returns reported Percent Effect for input CNC(=O)C1Cn2ccnc2C2(CCN(Cc3cccnc3)CC2)O1 (stereo not given)
Response: -4.76%

Prompt: // returns reported Percent Effect for input CC(NC(=O)Nc1cccnc1N1CCCC1)c1nncn1C (stereo not given)
Response: -3.96%

Prompt: // returns reported Percent Effect for input "CC(=O)N1CCCN(C(=O)CCc2c(C)noc2C)CC1"
Response: -5.5%

Prompt: // returns reported Percent Effect for input CNC(=O)c1cccc(C2CNCCN2C(C)=O)c1 (stereo not given)
Response: 0.479%

Prompt: // returns reported Percent Effect for input "CC(C)Cc1cc(NC(=O)c2ccc[nH]2)n(C)n1"
Response: -5.53%

Prompt: // returns reported Percent Effect for input "CCn1cc(Br)c(C(=O)NCc2cnn(C)c2)n1"
Response: -1.67%

Prompt: // returns reported Percent Effect for input "Cc1cccc(CNCc2c(C)nn(C)c2N2CCOCC2)n1"
Response: 0.786%

Prompt: // returns reported Percent Effect for input c1ccc(CNC2CCc3ncnn3C2)nc1 (stereo not given)
Response: 0.311%

Prompt: // returns reported Percent Effect for input Cc1cnn(CC2CCN(CC(O)COc3ccc(F)cc3)CC2)c1 (stereo not given)
Response: -5.77%

Prompt: // returns reported Percent Effect for input Cc1ccc(-c2cn[nH]c2C2CCCN(c3nccc(N)n3)C2)cc1 (stereo not given)
Response: -2.69%

Prompt: // returns reported Percent Effect for input "CC(C)(C)c1noc(CN2CCN(C(=O)c3cccs3)CC2)n1"
Response: -2.39%

Prompt: // returns reported Percent Effect for input "CC(C)c1nnc(NC(=O)NCc2ccc(CO)c(F)c2)s1"
Response: -5.17%

Prompt: // returns reported Percent Effect for input "O=C(Cc1ccc2c(c1)OCCO2)NCCc1nnc2n1CCC2"
Response: -2.17%

Prompt: // returns reported Percent Effect for input CCN(CC1CCOC1)C(=O)Nc1ccc(N2CCCC2)nc1 (stereo not given)
Response: -6.5%

Prompt: // returns reported Percent Effect for input Cc1nc(C)n(CC2CN(CCOc3ccccc3F)CCO2)n1 (stereo not given)
Response: -2.06%

Prompt: // returns reported Percent Effect for input "CC[C@@H]1N(Cc2ccsc2)CCC[C@]12CCC(=O)N2C"
Response: -5.65%

Prompt: // returns reported Percent Effect for input Cc1nc(C)n(CC2CCCN2Cc2cn3ccsc3n2)n1 (stereo not given)
Response: 1.01%
